- target entity: HLA-A*68:02
- test method notes: IEDB peptide-MHC binding, purified MHC/competitive/radioactivity; filed as Kd, often an IC50 or EC50 that approximates it; bounds were set here for any values at or beyond the usual limits of such assays
- test parameters: source organism: Dengue virus 1 Brazil/97-11/1997
endpoint name: Kd (nM)
All answers are understood in nM, so give the number only.

Request: So what does the record say about Kd for HTIENTTANI ?
Result: 1.75

====

- target entity: HLA-A*02:11
- test method notes: IEDB peptide-MHC binding, purified MHC/competitive/fluorescence; filed as Kd, often an IC50 or EC50 that approximates it; bounds were set here for any values at or beyond the usual limits of such assays
- test parameters: source organism: Brucella melitensis bv. 1 str. 16M
endpoint name: Kd

Request: What measured Kd goes with AVGVVCTGL ?
Result: ≥ 20 µM

====

- target entity: HLA-A*69:01
- test method notes: IEDB peptide-MHC binding, purified MHC/direct/fluorescence; filed as Kd, often an IC50 or EC50 that approximates it; bounds were set here for any values at or beyond the usual limits of such assays
- test parameters: source organism: Cryptosporidium parvum
endpoint name: Kd

{"columns": ["polymer sequence", "readout value"],
 "data": [
  ["DFIGKTIGF", "≥ 20 µM"]
]}

Request: Give Kd (HLA-A*69:01) of the following sequence: KMFNSVGGA
Result: ≥ 20 µM

====

- target entity: HLA-A*23:01
- test method notes: IEDB peptide-MHC binding, purified MHC/competitive/radioactivity; filed as Kd, often an IC50 or EC50 that approximates it; bounds were set here for any values at or beyond the usual limits of such assays
- test parameters: source organism: Vaccinia virus WR
endpoint name: pKd
// pKd is dimensionless: -log10 of concentration (M)

Request: I have this sequence here, DMCDIYLLY , and I need its recorded pKd.
Result: 6.67

====

- target entity: HLA-B*58:01
- test method notes: IEDB peptide-MHC binding, purified MHC/direct/fluorescence; filed as Kd, often an IC50 or EC50 that approximates it; bounds were set here for any values at or beyond the usual limits of such assays
- test parameters: source organism: Serratia marcescens
pKd: −log10 of the molar value.
endpoint name: pKd

Request: Can you look up the measured pKd of LIPDGDGEV for me?
Result: ≤ 4.70

====

- target entity: HLA-B*15:01
- test method notes: IEDB peptide-MHC binding, purified MHC/direct/fluorescence; filed as Kd, often an IC50 or EC50 that approximates it; bounds were set here for any values at or beyond the usual limits of such assays
- test parameters: source organism: Rickettsia conorii
endpoint name: Kd (µM)
Respond numerically; units are µM and should not be typed.

Request: # lookup: Kd of IIMFDAEKL
Result: 3.35

====

- target entity: HLA-B*57:01
- test method notes: IEDB peptide-MHC binding, purified MHC/competitive/fluorescence; filed as Kd, often an IC50 or EC50 that approximates it; bounds were set here for any values at or beyond the usual limits of such assays
- test parameters: source organism: Entamoeba histolytica HM-1:IMSS
pKd: −log10 of the molar value.
endpoint name: pKd

Request: Given CLSPVVAGL , state its recorded pKd.
Result: ≤ 4.70

====

- target entity: HLA-B*15:01
- test method notes: IEDB peptide-MHC binding, purified MHC/competitive/fluorescence; filed as Kd, often an IC50 or EC50 that approximates it; bounds were set here for any values at or beyond the usual limits of such assays
- test parameters: source organism: Human herpesvirus 4 type 2
endpoint name: Kd

Request: Give its Kd value. Item: QNGALAINTF
Result: ≥ 20 µM
